# Test system: Paracentrotus lividus
# EXPERIMENTAL PROTOCOL: Antimitotic activity against Paracentrotus lividus embryo assessed as cleavage arrest treated 10 to 25 mins post fertilization followed by 45 to 60 mins before the first mitotic cycle completion by sea urchin embryo assay
# Assay type: functional
REPORTED PROPERTY: EC (nM)
// return numeric value only (unit: nM, not printed)

// worked examples, EC included
MOLECULE	REPORTED PROPERTY	UNITS TEXT	TEST VALUE
COc1cc([C@H]2C3=C(COC3=O)Nc3cc4c(cc32)OCO4)cc2c1OCO2	EC	nM	50
COc1cc([C@@H]2c3cc4c(cc3[C@H](O)[C@H]3COC(=O)[C@H]23)OCO4)cc(OC)c1OC [PODOFILOX]	EC	nM	50
COc1ccc2c(c1)C(c1cc(OC)c3c(c1)OCO3)C1=C(COC1=O)N2 (stereo not drawn)	EC	nM	50
COc1ccc(C2C3=C(COC3=O)Nc3cc4c(cc32)OCO4)cc1OC (stereo not drawn)	EC	nM	100
COc1cc(C2C3=C(COC3=O)Nc3ccccc32)cc2c1OCO2 (stereo not drawn)	EC	nM	200

Task: Give recorded EC with Paracentrotus lividus for the following molecule: OC1=C2C(=Nc3cc4c(cc3C2c2ccc3c(c2)OCO3)OCO4)CO1 (stereo not drawn)
Result: 50

Task: Here is the next molecule: OC1=C2C(=Nc3cc4c(cc3C2c2ccccc2)OCO4)CO1 (stereo not drawn)
Result: 20

====

Here, each record is paired with measured EC data.
# Tested on: Paracentrotus lividus
# EXPERIMENTAL PROTOCOL: Antimitotic activity against Paracentrotus lividus embryo assessed as cleavage arrest treated 10 to 25 mins post fertilization followed by 45 to 60 mins before the first mitotic cycle completion by sea urchin embryo assay
# Type: functional
Quick reminder: number only, in µM, skip the unit.

In [3]: df
Out[3]:
                                   compound  reported_property  test_value
0  COc1cc(C2C3=C(COC3=O)Nc3cc4c(cc32)OCO4)cc(OC)c1OC (stereo not drawn)                 EC         0.5

Next item in the queue.
Task: Identify the measured EC of COc1cc(C2C3=C(COC3=O)Nc3cc4c(cc32)OCO4)c(OC)c(OC)c1OC (stereo not drawn) for Paracentrotus lividus.
Result: 4

====

// reported EC for each item listed
# Test system: Paracentrotus lividus
# EXPERIMENTAL PROTOCOL: Antimitotic activity against Paracentrotus lividus embryo assessed as cleavage arrest treated 10 to 25 mins post fertilization followed by 45 to 60 mins before the first mitotic cycle completion by sea urchin embryo assay
# Format: functional
Give the quantity in nM, number only.

Recorded EC, per entry:
In [3]: df
Out[3]:
                                   compound  reported_property  test_value
0  COc1cc(C2C3=C(COC3=O)Nc3cc4c(c(OC)c32)OCO4)cc2c1OCO2 (stereo not given)                 EC         500
1  COc1cc(-c2c3c(nc4cc5c(cc24)CCC5)COC3=O)cc2c1OCO2                 EC        1000
2  COc1c(C2C3=C(COC3=O)Nc3cc4c(cc32)OCO4)cc2c(c1OC)OCO2 (stereo not given)                 EC         500

API: the following record is the query input.
Task: I have this compound here, COc1cc(C2C3=C(COC3=O)Nc3cc4c(cc32)OCCO4)cc2c1OCO2 (stereo not given) , and I need its recorded EC.
Result: 50

====

pIC50 reference
# Tested on: A549
# EXPERIMENTAL PROTOCOL: Cytotoxicity against human A549 cells assessed as cell viability after 24 hrs by MTT assay
# Format: functional, cell-based
# CONDITION NOTES: A549, 24 h
Scale for pIC50: -log10 of concentration given in mol/L; no unit attached.

In [3]: df
Out[3]:
                                   compound  reported_property  test_value
0  COc1cc(C2C3=C(COC3=O)Nc3cc4c(cc32)OCO4)cc(OC)c1OC (stereo not given)              pIC50        8.57

Turning to the following compound.
Task: Data request, read-out pIC50, for COc1cc(C2C3=C(COC3=O)Nc3ccccc32)cc2c1OCO2 (stereo not given)
Result: 6.27

====

As shown below, each of these compounds has a reported IC50 value.
# Tested on: A549
# EXPERIMENTAL PROTOCOL: Cytotoxicity against human A549 cells assessed as cell viability after 24 hrs by MTT assay
# Format: functional, cell-based
# CONDITION NOTES: A549, 24 h
Kindly provide the numeric value in µM only, without the unit symbol.

In [3]: df
Out[3]:
                                   compound  reported_property  test_value
0  COc1cc(C2C3=C(COC3=O)Nc3cc4c(cc32)CCCC4)cc(OC)c1OC (stereo unspecified)               IC50      0.0565
1  COc1cc([C@@H]2c3cc4c(cc3[C@H](O)[C@H]3COC(=O)[C@H]23)OCO4)cc(OC)c1OC [PODOFILOX]               IC50     0.00747
2  COc1ccc2c(c1)C(c1cc(OC)c3c(c1)OCO3)C1=C(COC1=O)N2 (stereo unspecified)               IC50       0.282
3  COc1cc(-c2c3c(nc4cc5c(cc24)OCO5)COC3=O)cc(OC)c1OC               IC50        11.9
4  COc1ccc(C2C3=C(COC3=O)Nc3cc4c(cc32)OCO4)cc1OC (stereo unspecified)               IC50       0.596

Please look at the following compound next.
Task: Please look up its IC50: COc1cc(C2C3=C(COC3=O)Nc3cc4c(cc32)OCO4)c(OC)c(OC)c1OC (stereo unspecified)
Result: 0.299

====

# Tested on: A549
# EXPERIMENTAL PROTOCOL: Cytotoxicity against human A549 cells assessed as cell viability after 24 hrs by MTT assay
# Format: functional, cell-based
# CONDITION NOTES: A549, 24 h
REPORTED PROPERTY: pIC50
pIC50 here: minus log base 10 of the concentration, concentration in moles per litre.

Recorded pIC50, per entry:
In [3]: df
Out[3]:
                                   compound  test_value
0  COc1cc(C2C3=C(O)OCC3=Nc3cc4c(cc32)OCCO4)cc(OC)c1OC (stereo not drawn)        8.04
1  COc1cc(C2C3=C(COC3=O)Nc3cc4c(c(OC)c32)OCO4)cc2c1OCO2 (stereo not drawn)        6.53
2  COc1cc(C2C3=C(COC3=O)Nc3cc4c(cc32)OCCO4)cc2c1OCO2 (stereo not drawn)        7.19
3  COc1cc(C2C3=C(COC3=O)Nc3cc4c(cc32)CCC4)cc2c1OCO2 (stereo not drawn)        6.58
4  COc1cc(C2C3=C(COC3=O)Nc3cc4c(c(OC)c32)OCO4)cc(OC)c1OC (stereo not drawn)        6.54
5  COc1cc(C2C3=C(COC3=O)Nc3c2ccc2c3CCCC2)cc2c1OCO2 (stereo not drawn)        6.80

Here is the next item to consider.
Task: What is its pIC50 for A549? Entry: COc1cc(C2C3=C(COC3=O)Nc3cc4c(cc32)OCO4)cc2c1OCO2 (racemic)
Result: 7.26
